meta.source: patent US20260265233A1

- tgt: human RXFP1 (Homo sapiens, UniProt Q9HBX9)
- Sequence (Q9HBX9 1-757): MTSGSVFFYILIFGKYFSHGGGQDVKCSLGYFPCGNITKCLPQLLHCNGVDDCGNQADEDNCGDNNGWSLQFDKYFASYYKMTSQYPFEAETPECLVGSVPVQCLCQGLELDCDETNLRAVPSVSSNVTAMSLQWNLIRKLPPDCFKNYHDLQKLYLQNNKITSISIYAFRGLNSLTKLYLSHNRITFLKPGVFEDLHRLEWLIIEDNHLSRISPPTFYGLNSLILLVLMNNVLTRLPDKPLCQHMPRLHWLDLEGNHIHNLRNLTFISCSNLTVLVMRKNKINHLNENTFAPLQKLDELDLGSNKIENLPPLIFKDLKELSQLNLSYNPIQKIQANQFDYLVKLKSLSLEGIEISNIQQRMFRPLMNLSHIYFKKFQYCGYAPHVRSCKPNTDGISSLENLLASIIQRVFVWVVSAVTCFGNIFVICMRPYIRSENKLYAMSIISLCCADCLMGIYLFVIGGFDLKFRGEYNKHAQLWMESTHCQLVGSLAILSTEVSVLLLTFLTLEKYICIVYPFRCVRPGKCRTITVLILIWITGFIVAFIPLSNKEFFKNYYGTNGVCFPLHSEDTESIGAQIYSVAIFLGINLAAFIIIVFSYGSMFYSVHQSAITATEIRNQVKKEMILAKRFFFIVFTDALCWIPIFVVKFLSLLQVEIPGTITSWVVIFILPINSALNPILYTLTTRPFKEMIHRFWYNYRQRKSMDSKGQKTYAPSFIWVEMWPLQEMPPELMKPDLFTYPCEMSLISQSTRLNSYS
- protocol notes: hRXFP1 HEK293 cAMP assay (HTRF)
- applied conditions: HEK293 cells stably expressing human RXFP1; 30 min at rt; intracellular cAMP by HTRF
# EC50 per record follows
Give a bare numeral; the unit nM is implied.

| compound | value units | result value |
| --- | --- | --- |
| COc1ccc(C2CCCC(NC3COC3)C2)cc1C(=O)Nc1c(C(=O)Nc2ccc(F)c(C(F)(F)F)c2)sc2cc(C(F)(F)F)ccc12 (single isomer, unassigned) [Example 61] | nM | 599 |
| COc1ccc(C2CCN(C(=O)C3CC3(F)F)C2)cc1C(=O)Nc1c(C(=O)Nc2ccc(F)c(C(F)(F)F)c2)sc2cc(C(F)(F)F)ccc12 (centres unmarked) | nM | 634 |
| COc1ccc(N2CCCC2=O)cc1C(=O)Nc1c(C(=O)Nc2ccc(F)c(C(F)(F)F)c2)sc2cc(C(F)(F)F)ccc12 | nM | 1410 |
| COc1ccc(CNC(c2ccc(F)c(-c3ccc(OC)c(C(=O)Nc4c(C(=O)Nc5ccc(F)c(C(F)(F)F)c5)sc5cc(C(F)(F)F)ccc45)c3)c2)C(F)(F)F)cc1OC (single isomer, unassigned) [Example 115] | nM | 98 |

Now turn to the next compound.
Task item: Item COc1ccc(C2CCN(C3COC3)C2)cc1C(=O)Nc1c(C(=O)Nc2ccc(F)c(C(F)(F)F)c2)sc2cc(C(F)(F)F)ccc12 (centres unmarked) [Example 154] has what recorded EC50?
Reply: 553
